test system: L1210 leukemia ip in BDF1 mice, survival T/C; test: NCI In Vivo Anticancer Drug Screen. Data for tumor model L1210 Leukemia (intraperitoneal) in B6D2F1 (BDF1) mice; conditions: endpoint: mean survival time; dose: 75.0 mg/kg/injection; schedule: Q01DX001 (ip); vehicle: carboxymethylcellulose (CMC); higher = longer survival
Toxic doses and inconclusive results are not listed.
readout-name: T/C

The examples below pair each entry with its known result.
# cpd-smiles, target, readout-name, result
records = [
    ("O=C(Nc1ccc(C(=O)O)cc1)Oc1ccc(N(CCCl)CCCl)cc1", "L1210 leukemia ip in BDF1 mice, survival T/C", "T/C", "124 % of control"),
    ("Oc1cccc2ccc(Cl)nc12", "L1210 leukemia ip in BDF1 mice, survival T/C", "T/C", "97 % of control"),
    ("NC(=O)Nc1cccc(C(F)(F)F)c1", "L1210 leukemia ip in BDF1 mice, survival T/C", "T/C", "98 % of control"),
]

In: Please look up its T/C: ClCC1(CCl)OCCO1
Out: 95 % of control

In: Please look up its T/C: Cc1cc[n+](CCc2ccccc2)cc1
Out: 108 % of control

Hello, the source for this data is PubChem BioAssay AID248, in case you need it.
